- study_target: T1, Fc fused human IL-18BP isoform a (IL-18BPa) (human, UniProt O95998 31-194)
- T1 construct: also called IL-18BP monomer; not shown: Fc part
- T1 sequence (looked up): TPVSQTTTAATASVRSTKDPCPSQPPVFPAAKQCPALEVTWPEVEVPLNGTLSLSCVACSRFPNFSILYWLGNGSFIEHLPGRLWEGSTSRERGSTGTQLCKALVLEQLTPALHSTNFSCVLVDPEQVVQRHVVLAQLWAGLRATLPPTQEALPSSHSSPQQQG
- run_description: SPR, Fc-IL-18BPa captured, 1:1 model
- Protocol: The interaction of the wild type and of modified IL-18 polypeptides with human IL-18 receptor subunits were measured with Surface Plasmon Resonance (SPR) technology. […] The kinetic binding of the IL-18 analytes were measured with a Biacore 8K instrument in two-fold serial dilutions starting at 1 μM down to 0.98 nM. […]
Kd for assorted binders

Which value of Kd has been reported for Modified IL-18 polypeptide of SEQ ID NO: 71 with a 30 kDa PEG attached at residue C68 (E6K, C38S, K53A, C68-30kDPEG) (ligand, 30 kDa PEG on Cys 68 (30 kDa DBCO-polyethylene glycol clicked to a bromoacetamido-PEG5-azide linker on the cysteine), also called 71 + PEG) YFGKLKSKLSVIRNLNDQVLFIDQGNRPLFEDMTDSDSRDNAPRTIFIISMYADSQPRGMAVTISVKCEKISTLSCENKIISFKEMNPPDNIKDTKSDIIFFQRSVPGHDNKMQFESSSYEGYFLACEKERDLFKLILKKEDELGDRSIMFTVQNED in the records?
24.5 nM

Which value of Kd has been reported for Modified IL-18 polypeptide of SEQ ID NO: 16 (C38S, C68S, C76S, C127S, K70C) (ligand) YFGKLESKLSVIRNLNDQVLFIDQGNRPLFEDMTDSDSRDNAPRTIFIISMYKDSQPRGMAVTISVKSECISTLSSENKIISFKEMNPPDNIKDTKSDIIFFQRSVPGHDNKMQFESSSYEGYFLASEKERDLFKLILKKEDELGDRSIMFTVQNED in the records?
0.374 nM

Which value of Kd has been reported for Modified IL-18 polypeptide of SEQ ID NO: 14 (E06K, K53A, S55A, M51G) (ligand) YFGKLKSKLSVIRNLNDQVLFIDQGNRPLFEDMTDSDCRDNAPRTIFIISGYADAQPRGMAVTISVKCEKISTLSCENKIISFKEMNPPDNIKDTKSDIIFFQRSVPGHDNKMQFESSSYEGYFLACEKERDLFKLILKKEDELGDRSIMFTVQNED in the records?
> 1000 nM
